Biological target: HIV-1 PR (Human immunodeficiency virus type 1 group M subtype B, UniProt P04585)
Construct: assayed as substrates of the HIV-1 protease (PR)
Experiment: Enzyme assay with synthetic oligopeptide substrates (RP-HPLC)
Type: biochemical, human immunodeficiency virus type 1 (HIV-1)
Conditions: Table 3, revertant peptides; same buffer, 37 °C, 1 h; peptides not cleaved at threshold given as estimated kcat < 0.01 s^−1
# reported kcat; entries follow
Respond numerically; units are s⁻¹ and should not be typed.

seq="KIVKICFGCGKR [peptide 17, revertant NC-1 cleavage site peptide […]]" study_target="HIV-1 PR (Human immunodeficiency virus type 1 group M subtype B, UniProt P04585)" measure_name=kcat unit_spec=s⁻¹ quantitative_result=0.025

Request body: readout kcat, system HIV-1 PR (Human immunodeficiency virus type 1 group M subtype B, UniProt P04585), query RKIVICFGCGKR [peptide 16, revertant NC-1 cleavage site peptide […]] . Return the value.
0.034

Request body: readout kcat, system HIV-1 PR (Human immunodeficiency virus type 1 group M subtype B, UniProt P04585), query RKIVICFGCIKR [peptide 19, revertant NC-1 cleavage site peptide […]] . Return the value.
0.015

Just for reference, paper PMC8227227 is where these values come from.
